measurement.protocol: PAMPA (parallel artificial membrane permeability assay)
Format: in vitro ADME
condition.summary: PAMPA, pH 6.5
Starred links: 1 amine or outer side, 2 acyl side, 3 side chain; linkers in the order of their positions; H or OH if unused. Positions of bridges follow the written chain, without caps; N, C: chain ends. Non-standard residues stand in square brackets, D forms with d. Residues, ends and D or L forms follow the SMILES beside them. *: point of attachment. NMeF = CN[C@@H](Cc1ccccc1)C(=O)O; NMeI = CC[C@H](C)[C@H](NC)C(=O)O; NMeβAla = CN(CCC(=O)[*:2])[*:1]; NMeL = CN[C@@H](CC(C)C)C(=O)O; NMeV = CN[C@H](C(=O)O)C(C)C; Piperidide = C1CCN(*)CC1
Please go through the items and note down their Papp at 18 hours, 50 µM.

Data request: Using the record for CC(C)C[C@H]1C(=O)N[C@@H](Cc2ccccc2)C(=O)N(C)[C@@H](C(C)C)C(=O)N[C@@H]([C@@H](C)O)C(=O)N[C@H](C(=O)N(C)[C@@H](Cc2ccccc2)C(=O)N(C)[C@@H](Cc2ccccc2)C(=O)N[C@@H](C)C(=O)N2CCCCC2)CC(=O)N(C)CCC(=O)N[C@@H](C(C)C)C(=O)N(C)[C@@H](CC(C)C)C(=O)N(C)[C@@H](Cc2ccccc2)C(=O)NCC(=O)N1C [DP-298] ([NMeβAla]V[NMeL][NMeF]G[NMeL]F[NMeV]TD[NMeF][NMeF]A-Piperidide; lactam N-10) , report its Papp at 18 hours, 50 µM.
Data returned: 7 ×10⁻⁶ cm/s

Data request: Using the record for CC[C@H](C)[C@H]1C(=O)N(C)[C@@H](Cc2ccccc2)C(=O)N[C@@H](CC(C)C)C(=O)N[C@H](C(=O)N2CCCCC2)CC(=O)N(C)CCC(=O)N(C)[C@@H](CC(C)C)C(=O)N[C@@H]([C@@H](C)O)C(=O)N(C)[C@@H](Cc2ccccc2)C(=O)N(C)[C@@H](CC(C)C)C(=O)N[C@@H](C)C(=O)N(C)[C@@H](CC(C)C)C(=O)N1C [DP-104] ([NMeβAla][NMeL]T[NMeF][NMeL]A[NMeL][NMeI][NMeF]LD-Piperidide; lactam N-11) , report its Papp at 18 hours, 50 µM.
Data returned: 6.7 ×10⁻⁶ cm/s

Data request: Using the record for CC[C@H](C)[C@@H]1NC(=O)[C@H](Cc2ccccc2)N(C)C(=O)[C@H](Cc2ccccc2)NC(=O)[C@H](CC(C)C)N(C)C(=O)[C@H](CC(C)C)NC(=O)[C@H](C)NC(=O)C[C@@H](C(=O)N2CCCCC2)NC(=O)[C@H](CC(C)C)NC(=O)[C@H]([C@@H](C)O)NC(=O)[C@@H]2CCCN2C1=O [DP-17] (AL[NMeL]F[NMeF]IPTLD-Piperidide; lactam N-10) , report its Papp at 18 hours, 50 µM.
Data returned: 38 ×10⁻⁶ cm/s
